The reported measurements were obtained from patent US4416870A.

assay: physchem; conditions: ethyl acetate, organic solvent or mixture
*1 amine or outer side, *2 acyl side, *3 side chain or, on linkers, in order; H or OH if unused. Where a SMILES comes first, the peptide text is derived from it. [ ]: non-standard residue; d: D form. ξ: configuration not given here. X1 = Cn1c(=O)ccn(C2SC(C(O)C(N[*:1])C(=O)[*:2])C(O)C2O)c1=O; ξOrn(N(OH)Ac) = CC(=O)N(O)CCCC(N)C(=O)O; ξS = NC(CO)C(=O)O
Measurement type: solubility

Task: Please give the measured solubility for this compound: CC(=O)N(O)CCCC(N)C(=O)NC(CCCN(O)C(C)=O)C(=O)NC(CCCN(O)C(C)=O)C(=O)NC(CO)C(=O)NC(C(=O)O)C(O)C1SC(n2ccc(=O)n(C)c2=O)C(O)C1O (stereo not shown) [BAYi 3265 Component A] (H-[ξOrn(N(OH)Ac)][ξOrn(N(OH)Ac)][ξOrn(N(OH)Ac)][ξS][X1]-OH)
Result: < 100 µg/mL
